test system: PRKD1; conditions: concentration: 1 μM, replicates: in singlicate; n = 1;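 note: KINOMEscan kinase panel screen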
experimental.readout: %Inh (%)
Numbers only, in %.

Previously resolved entries follow.
> print(dat)
                                   compound  experimental.readout  measured
1  Cl.c1ccc(-c2ccc3c(Nc4ccc5[nH]ncc5c4)ccnc3c2)nc1                  %Inh         3
2  Clc1ccc(-c2nn3ncccc3c2-c2ccnc(Nc3ccc4c(c3)OCCO4)n2)cc1                  %Inh         0
3  CN(c1ccc(NC(=O)Nc2cc(C(F)(F)F)ccc2F)cc1)c1ccnc(Nc2ccc(S(N)(=O)=O)cc2)n1                  %Inh         0
4  COC(=O)Nc1nc2cc(Oc3ccc(NC(=O)Nc4cc(C(F)(F)F)ccc4F)cn3)ccc2[nH]1.Cl.Cl                  %Inh         0
5  Cc1ccc(F)c(C(=O)Nc2cccc(-c3nn4ccccc4c3-c3ccnc(Nc4cccc(F)c4)n3)c2)c1F                  %Inh        14
6  COc1cc(Nc2ncc3c(C)nc(-c4cc5ccccc5[nH]4)n3n2)cc(OC)c1OC                  %Inh         0

Count: 7. Required value per item: %Inh.
1. CN1CCN(Cc2cccc(-c3ccc4c(Nc5ccc(Oc6ccccc6)cc5)ccnc4c3)c2)CC1
2. Cc1ccc(C(=O)Nc2ccc(Nc3ccnc4cc(-c5nccs5)ccc34)cc2O)cc1.Cl
3. Oc1cc(Nc2ccnc3cc(I)ccc23)ccc1F
4. COc1ccc(CNC(=O)NC2CCN(c3ccnc(Nc4ccc(F)cc4)n3)CC2)cc1
5. Fc1ccc(-c2ncn(C3CCNCC3)c2-c2ccnc(Oc3ccc(-c4ccccc4)cc3)n2)cc1
6. C[C@@H]1CC[C@@H](C(=O)Nc2ccccc2)CN1c1cc(-c2ccc3c(N)n[nH]c3c2)nc(N)n1
7. COc1cc(Nc2nccc(-c3c(-c4cccc(NC(=O)c5c(F)cccc5F)c4)nn4ccccc34)n2)cc(OC)c1OC

[A]
[0, 0, 45, 5, 0, 0, 8]

Quick one: give me %Inh for each item below, same order please.
1. O=C(Nc1n[nH]c2cc(-c3ccoc3)ccc12)C1CC1
2. COc1cc(Nc2nccc(-c3c(-c4cccc(NC(=O)c5c(F)cccc5F)c4)nn4ncccc34)n2)cc(OC)c1OC
3. FC(F)(F)c1ccc(/C=C/c2cncnc2Nc2ccc3[nH]c(Cc4ccccc4)nc3c2)cc1
4. O=C(O)C(F)(F)F.O=C(O)C(F)(F)F.O=c1[nH]ccc2nc(N[C@@H]3CCCNC3)nc(Nc3ccc(S(=O)(=O)N4CCOCC4)cc3)c12

[A]
1: 0; 2: 6; 3: 0; 4: 94.8
